# Test system: Pseudomonas aeruginosa
# method: Inhibition of beta-lactamase in Pseudomonas aeruginosa CL 5701 assessed as drug concentration required to reduce imipenem MIC to 4 ug/ml
endpointLabel: INH (µM)

                                linenotation  readoutvalue
 0  NCc1ccc(NC(=O)[C@@H]2CC[C@@H]3CN2C(=O)N3OS(=O)(=O)O)nc1          6.25
 1  CN(C(=O)[C@@H]1CC[C@@H]2CN1C(=O)N2OS(=O)(=O)O)C1CCNCC1            25
 2  O=C(O)c1ccc(NC(=O)[C@@H]2CC[C@@H]3CN2C(=O)N3OS(=O)(=O)O)cc1            50
 3  CN1CCC(NC(=O)[C@@H]2CC[C@@H]3CN2C(=O)N3OS(=O)(=O)O)CC1          12.5
 4  N[C@@H](Cc1ccc(NC(=O)[C@@H]2CC[C@@H]3CN2C(=O)N3OS(=O)(=O)O)cc1)C(=O)O            25
 5  O=C(NCC1CCNCC1)[C@@H]1CC[C@@H]2CN1C(=O)N2OS(=O)(=O)O          6.25
 6  Nc1cccc(NC(=O)[C@@H]2CC[C@@H]3CN2C(=O)N3OS(=O)(=O)O)n1            50
 7  O=C(Nc1ccncc1)[C@@H]1CC[C@@H]2CN1C(=O)N2OS(=O)(=O)O            25
 8  O=C(N[C@@H]1CCNC1)[C@@H]1CC[C@@H]2CN1C(=O)N2OS(=O)(=O)O          6.25
 9  O=C(N[C@@H]1CCCNCC1)[C@@H]1CC[C@@H]2CN1C(=O)N2OS(=O)(=O)O          6.25
10  O=C(NC1CCS(=O)(=O)CC1)[C@@H]1CC[C@@H]2CN1C(=O)N2OS(=O)(=O)O            50
